System: Mus musculus
Test name: Reduction in tolerance acquisition in ICR-CD1 mouse assessed as compound antinociception effect at 125 to 2500 pmol intrathecally administered on day 1 and repeated on day 2 measured on day 2 by radiant heat tail flick test
Assay type: functional
Parameters: scale not given: the % may be the effect or the level left
One threshold, 80%, splits the recorded Activity values: lower ones are T, equal or higher ones are F.

[[record]]
structure_notation = "Cc1c(C(=O)NC2CCN(C(=O)N[C@H]3CC[C@@]4(O)[C@H]5Cc6ccc(O)c7c6[C@@]4(CCN5C)[C@H]3O7)CC2)nn(-c2ccc(Cl)cc2Cl)c1-c1ccc(Cl)cc1"
class_label = "T"

[[record]]
structure_notation = "Cc1c(C(=O)NC2CCN(C(=O)COCC(=O)NCCNC(=O)COCC(=O)N[C@H]3CC[C@@]4(O)[C@H]5Cc6ccc(O)c7c6[C@@]4(CCN5C)[C@H]3O7)CC2)nn(-c2ccc(Cl)cc2Cl)c1-c1ccc(Cl)cc1"
class_label = "T"

[[record]]
structure_notation = "Cc1c(C(=O)NC2CCN(C(=O)COCC(=O)NCCCCCCCNC(=O)COCC(=O)N[C@H]3CC[C@@]4(O)[C@H]5Cc6ccc(O)c7c6[C@@]4(CCN5C)[C@H]3O7)CC2)nn(-c2ccc(Cl)cc2Cl)c1-c1ccc(Cl)cc1"
class_label = "F"

[[record]]
structure_notation = "Cc1c(C(=O)NC2CCN(C(=O)COCC(=O)N[C@H]3CC[C@@]4(O)[C@H]5Cc6ccc(O)c7c6[C@@]4(CCN5C)[C@H]3O7)CC2)nn(-c2ccc(Cl)cc2Cl)c1-c1ccc(Cl)cc1"
class_label = "T"

[[record]]
structure_notation = "CNC(=O)COCC(=O)NCCCCCNC(=O)COCC(=O)N[C@H]1CC[C@@]2(O)[C@H]3Cc4ccc(O)c5c4[C@@]2(CCN3C)[C@H]1O5"
class_label = "T"


---

Below, each of the compounds is paired with its reported Activity value.
System: Mus musculus
Test name: Reduction in tolerance acquisition in ICR-CD1 mouse assessed as compound antinociception effect at 125 to 2500 pmol, icv administered on day 1 and repeated on day 2 measured on day 1 by radiant heat tail flick test
Assay type: functional
Parameters: scale not given: the % may be the effect or the level left
Measured quantity: Activity (%)

[[record]]
structure_notation = "Cc1c(C(=O)NC2CCN(C(=O)COCC(=O)N[C@H]3CC[C@@]4(O)[C@H]5Cc6ccc(O)c7c6[C@@]4(CCN5C)[C@H]3O7)CC2)nn(-c2ccc(Cl)cc2Cl)c1-c1ccc(Cl)cc1"
measured_number = 77.72

[[record]]
structure_notation = "Cc1c(C(=O)NC2CCN(C(=O)COCC(=O)NCCCCCCNC(=O)COCC(=O)N[C@H]3CC[C@@]4(O)[C@H]5Cc6ccc(O)c7c6[C@@]4(CCN5C)[C@H]3O7)CC2)nn(-c2ccc(Cl)cc2Cl)c1-c1ccc(Cl)cc1"
measured_number = 95.43

[[record]]
structure_notation = "Cc1c(C(=O)NC2CCN(C(=O)N[C@H]3CC[C@@]4(O)[C@H]5Cc6ccc(O)c7c6[C@@]4(CCN5C)[C@H]3O7)CC2)nn(-c2ccc(Cl)cc2Cl)c1-c1ccc(Cl)cc1"
measured_number = 64.27

[[record]]
structure_notation = "Cc1c(C(=O)NC2CCN(C(=O)COCC(=O)NCCNC(=O)COCC(=O)N[C@H]3CC[C@@]4(O)[C@H]5Cc6ccc(O)c7c6[C@@]4(CCN5C)[C@H]3O7)CC2)nn(-c2ccc(Cl)cc2Cl)c1-c1ccc(Cl)cc1"
measured_number = 83.47

[[record]]
structure_notation = "Cc1c(C(=O)NC2CCN(C(=O)COCC(=O)NCCCCCCCNC(=O)COCC(=O)N[C@H]3CC[C@@]4(O)[C@H]5Cc6ccc(O)c7c6[C@@]4(CCN5C)[C@H]3O7)CC2)nn(-c2ccc(Cl)cc2Cl)c1-c1ccc(Cl)cc1"
measured_number = 89.75

[[record]]
structure_notation = "CNC(=O)COCC(=O)NCCCCCNC(=O)COCC(=O)N[C@H]1CC[C@@]2(O)[C@H]3Cc4ccc(O)c5c4[C@@]2(CCN3C)[C@H]1O5"
measured_number = 82.15

